The entries below come with measured EC50 values attached.
tested system: UniProtKB P35414
Sequence (P35414 whole entry): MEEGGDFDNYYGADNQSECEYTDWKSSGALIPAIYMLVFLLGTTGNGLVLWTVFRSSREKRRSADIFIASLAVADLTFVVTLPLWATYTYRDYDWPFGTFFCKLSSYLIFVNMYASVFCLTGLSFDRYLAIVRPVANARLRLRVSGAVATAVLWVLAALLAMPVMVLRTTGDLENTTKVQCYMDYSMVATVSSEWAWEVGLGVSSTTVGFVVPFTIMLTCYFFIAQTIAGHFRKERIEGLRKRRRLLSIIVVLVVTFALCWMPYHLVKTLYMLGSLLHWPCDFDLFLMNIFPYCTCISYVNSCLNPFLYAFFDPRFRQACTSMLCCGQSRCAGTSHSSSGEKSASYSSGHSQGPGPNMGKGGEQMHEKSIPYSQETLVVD
test details: [35S]GTPγS binding assay on membranes from CHO cells stably expressing human APJ receptor
assay setup: read-out: Activity hAPJ SPA EC50 IP
Don't forget the unit after the number, please.

Below are worked cases with known answers.
COC[C@@H]1COc2ccccc2-c2nnc(NS(=O)(=O)[C@@H](C)[C@@H](OC(C)C)c3ncc(C)cn3)n21 (single isomer, unassigned) [Example 4.0] | 0.017 µM
COC[C@@H]1COc2c(OC)cccc2-c2nnc(NS(=O)(=O)[C@@H](C)[C@H](C)c3ncc(OC)cn3)n21 (single isomer, unassigned) [Example 9.0] | 1.6 µM

Input: Looking for the measured EC50 of CO[C@H](c1ncc(C)cn1)[C@H](C)S(=O)(=O)Nc1nnc2n1[C@H](CO)COc1ncccc1-2 (mixture of isomers) , can you help?
Output: 1.8 µM
